B1: P2RY14 (parent)
chain: KKIFKSHLKSSRNSTSVKKKSSRN

variants of: B1; assay: protein stability index of a GFP-peptide fusion (GPS, HEK-293T) (PSI 1-6); higher = more stable; settings: c terminus: a fixed tail appended;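 also: lentivirally expressed fusions sorted by FACS into six bins by GFP to DsRed ratio, PSI derived from sequencing read proportions per bin multiplied by bin number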
met means recorded protein stability index is 4 or above; not met means it is below 4.

The examples below pair each entry with its known result.
>  <biosequence>
KKIFKSHLKSSRNSTSVKKKSRRN [S22R]

>  <label class>
met

$$$$
>  <biosequence>
KKIFKSHLKSSRNSTSVWKKSSRN [K18W]

>  <label class>
not met

$$$$
>  <biosequence>
PKIFKSHLKSSRNSTSVKKKSSRN [K1P]

>  <label class>
met

$$$$
>  <biosequence>
KKIFKSHAKSSRNSTSVKKKSSRN [L8A]

>  <label class>
met

$$$$
>  <biosequence>
KKIFKSHLKSSRNSTSVKKKSSTN [R23T]

>  <label class>
not met

$$$$

Problem: # bool: protein stability index of KKIFKSHLKSSRNSTSVKKKSSRW [N24W] >= 4
Result: not met

Problem: # bool: protein stability index of KKQFKSHLKSSRNSTSVKKKSSRN [I3Q] >= 4
Result: met

Problem: # bool: protein stability index of KKIFKSHLKSSRNSSSVKKKSSRN [T15S] >= 4
Result: met

Problem: # bool: protein stability index of KKIFKSHLKSSRNSTFVKKKSSRN [S16F] >= 4
Result: not met

Problem: # bool: protein stability index of KKIFKSHLKSSRNSTSRKKKSSRN [V17R] >= 4
Result: met

Problem: # bool: protein stability index of KKIFKSHLKSSRNSTSVKKKSKRN [S22K] >= 4
Result: met

Problem: # bool: protein stability index of KKIFKSHLWSSRNSTSVKKKSSRN [K9W] >= 4
Result: not met

Problem: # bool: protein stability index of KKIFKSHLKDSRNSTSVKKKSSRN [S10D] >= 4
Result: met

Problem: # bool: protein stability index of KKIFKMHLKSSRNSTSVKKKSSRN [S6M] >= 4
Result: not met
